Biological target: Lysine-specific demethylase 6A (Homo sapiens, UniProt O15550)
Sequence (O15550 whole entry): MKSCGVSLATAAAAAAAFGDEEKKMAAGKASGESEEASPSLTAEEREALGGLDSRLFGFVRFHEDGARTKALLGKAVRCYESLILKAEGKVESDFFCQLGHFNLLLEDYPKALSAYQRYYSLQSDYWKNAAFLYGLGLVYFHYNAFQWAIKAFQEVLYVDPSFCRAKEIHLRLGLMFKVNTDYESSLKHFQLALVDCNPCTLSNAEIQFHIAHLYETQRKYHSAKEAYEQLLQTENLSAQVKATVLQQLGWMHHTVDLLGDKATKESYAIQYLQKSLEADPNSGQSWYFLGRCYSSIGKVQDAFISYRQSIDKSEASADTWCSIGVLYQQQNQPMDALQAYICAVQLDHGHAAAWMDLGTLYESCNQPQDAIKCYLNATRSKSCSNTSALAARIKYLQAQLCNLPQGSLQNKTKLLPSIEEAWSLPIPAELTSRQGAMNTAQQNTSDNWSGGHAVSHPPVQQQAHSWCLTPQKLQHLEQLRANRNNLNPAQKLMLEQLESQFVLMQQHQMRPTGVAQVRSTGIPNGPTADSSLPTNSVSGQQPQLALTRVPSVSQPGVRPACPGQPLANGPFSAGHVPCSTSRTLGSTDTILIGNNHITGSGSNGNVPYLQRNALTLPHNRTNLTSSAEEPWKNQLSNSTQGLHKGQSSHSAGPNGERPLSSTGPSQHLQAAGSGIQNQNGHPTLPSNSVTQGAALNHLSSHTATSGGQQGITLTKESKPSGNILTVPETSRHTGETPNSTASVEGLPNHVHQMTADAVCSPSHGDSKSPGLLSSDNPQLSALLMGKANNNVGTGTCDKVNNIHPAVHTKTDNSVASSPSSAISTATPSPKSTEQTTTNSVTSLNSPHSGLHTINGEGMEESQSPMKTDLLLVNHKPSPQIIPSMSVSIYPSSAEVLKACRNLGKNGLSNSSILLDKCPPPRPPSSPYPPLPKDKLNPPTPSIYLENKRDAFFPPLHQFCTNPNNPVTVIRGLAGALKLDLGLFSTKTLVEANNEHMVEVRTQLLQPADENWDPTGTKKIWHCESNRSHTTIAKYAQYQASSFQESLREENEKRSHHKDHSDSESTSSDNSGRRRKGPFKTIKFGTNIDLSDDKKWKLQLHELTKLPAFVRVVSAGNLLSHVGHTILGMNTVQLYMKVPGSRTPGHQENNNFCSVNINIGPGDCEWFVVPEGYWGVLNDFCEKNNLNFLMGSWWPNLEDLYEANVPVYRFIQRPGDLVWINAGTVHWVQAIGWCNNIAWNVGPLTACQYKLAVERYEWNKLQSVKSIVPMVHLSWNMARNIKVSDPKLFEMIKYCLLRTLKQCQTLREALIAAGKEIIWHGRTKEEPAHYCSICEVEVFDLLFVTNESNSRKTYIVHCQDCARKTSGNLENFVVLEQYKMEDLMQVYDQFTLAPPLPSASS
pIC50: −log10 of the molar value.
Reported metric: pIC50

Structure smiles: CCOC(=O)CCNc1cc(N2CCc3ccccc3CC2)nc(-c2ccccn2)n1
Target: Lysine-specific demethylase 6A (Homo sapiens, UniProt O15550)
Measured result: 5.18

----------
Biological target: UniProtKB O94953
Sequence (O94953 whole entry, the tested form may be a part): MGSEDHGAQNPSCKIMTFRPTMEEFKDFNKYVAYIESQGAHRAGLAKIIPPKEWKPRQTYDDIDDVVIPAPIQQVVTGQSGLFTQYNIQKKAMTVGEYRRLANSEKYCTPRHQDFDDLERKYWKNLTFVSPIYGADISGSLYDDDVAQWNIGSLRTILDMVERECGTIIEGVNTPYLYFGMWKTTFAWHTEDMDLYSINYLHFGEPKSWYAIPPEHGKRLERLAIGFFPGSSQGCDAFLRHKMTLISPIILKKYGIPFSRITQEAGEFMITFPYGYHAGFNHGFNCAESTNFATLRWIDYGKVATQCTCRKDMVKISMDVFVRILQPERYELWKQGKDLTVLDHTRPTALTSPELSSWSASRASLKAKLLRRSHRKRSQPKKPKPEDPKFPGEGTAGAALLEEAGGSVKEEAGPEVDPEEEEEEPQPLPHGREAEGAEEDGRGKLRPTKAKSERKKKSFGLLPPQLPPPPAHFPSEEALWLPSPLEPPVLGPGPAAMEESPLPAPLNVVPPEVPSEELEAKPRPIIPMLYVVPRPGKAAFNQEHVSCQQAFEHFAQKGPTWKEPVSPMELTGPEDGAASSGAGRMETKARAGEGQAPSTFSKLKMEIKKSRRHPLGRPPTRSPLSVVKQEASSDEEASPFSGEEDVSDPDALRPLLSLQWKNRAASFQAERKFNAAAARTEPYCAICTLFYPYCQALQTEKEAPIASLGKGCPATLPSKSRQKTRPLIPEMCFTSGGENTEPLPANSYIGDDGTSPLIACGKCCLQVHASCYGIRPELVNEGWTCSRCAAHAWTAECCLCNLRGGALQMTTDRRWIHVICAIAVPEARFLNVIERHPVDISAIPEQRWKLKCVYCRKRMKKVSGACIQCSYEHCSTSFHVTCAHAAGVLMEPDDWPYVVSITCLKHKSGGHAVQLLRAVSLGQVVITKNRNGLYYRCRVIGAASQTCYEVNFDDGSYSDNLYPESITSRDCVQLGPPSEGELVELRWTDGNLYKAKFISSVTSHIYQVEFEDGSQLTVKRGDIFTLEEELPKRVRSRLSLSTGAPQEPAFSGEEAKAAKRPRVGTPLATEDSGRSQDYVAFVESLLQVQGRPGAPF
Experiment: Inhibition of KDM4B (2 to 500 residues)(unknown origin) by Alphalisa assay
pIC50: −log10 of the molar value.

Structure smiles: O=C(O)CCNc1cc(N2CCc3ccccc3CC2)nc(-c2ccccn2)n1
pIC50: 4.14

----------
Target: Lysine-specific demethylase 4C (Homo sapiens, UniProt Q9H3R0)
Sequence (Q9H3R0 whole entry): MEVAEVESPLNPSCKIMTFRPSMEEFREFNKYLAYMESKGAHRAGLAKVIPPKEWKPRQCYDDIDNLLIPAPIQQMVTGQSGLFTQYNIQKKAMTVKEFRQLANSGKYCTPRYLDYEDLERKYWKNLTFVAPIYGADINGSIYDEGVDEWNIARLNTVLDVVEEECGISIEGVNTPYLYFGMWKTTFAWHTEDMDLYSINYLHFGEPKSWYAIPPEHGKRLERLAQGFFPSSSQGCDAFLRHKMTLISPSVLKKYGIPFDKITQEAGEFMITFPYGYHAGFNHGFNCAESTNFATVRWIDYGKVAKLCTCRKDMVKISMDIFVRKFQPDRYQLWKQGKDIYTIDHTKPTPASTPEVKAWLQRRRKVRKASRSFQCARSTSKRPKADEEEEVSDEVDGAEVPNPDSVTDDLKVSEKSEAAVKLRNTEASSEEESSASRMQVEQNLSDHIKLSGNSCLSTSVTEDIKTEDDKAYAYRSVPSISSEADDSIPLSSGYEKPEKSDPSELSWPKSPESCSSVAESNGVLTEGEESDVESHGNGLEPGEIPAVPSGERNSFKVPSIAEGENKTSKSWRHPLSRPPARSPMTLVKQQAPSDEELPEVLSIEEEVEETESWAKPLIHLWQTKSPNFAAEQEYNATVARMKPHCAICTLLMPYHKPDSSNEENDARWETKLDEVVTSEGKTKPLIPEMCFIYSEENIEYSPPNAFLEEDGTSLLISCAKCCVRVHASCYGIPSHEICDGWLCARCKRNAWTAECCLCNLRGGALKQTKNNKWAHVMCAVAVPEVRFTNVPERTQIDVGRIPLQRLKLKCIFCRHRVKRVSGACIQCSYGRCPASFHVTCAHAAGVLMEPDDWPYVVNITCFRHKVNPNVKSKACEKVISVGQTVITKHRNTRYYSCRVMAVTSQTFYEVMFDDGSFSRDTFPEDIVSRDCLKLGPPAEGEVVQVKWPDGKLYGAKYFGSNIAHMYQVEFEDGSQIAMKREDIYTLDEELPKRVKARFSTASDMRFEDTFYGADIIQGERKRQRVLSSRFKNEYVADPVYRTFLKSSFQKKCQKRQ
Assay: Inhibition of epitope-tagged full length KDM4C (unknown origin) transfected in human U2OS cells using H3K9me3 peptide as substrate
Type: cell-based
pIC50: −log10 of the molar value.
Reported metric: pIC50

Structure smiles: CCOC(=O)CCNc1cc(N2CCc3ccccc3CC2)nc(-c2ccccn2)n1
Target: Lysine-specific demethylase 4C (Homo sapiens, UniProt Q9H3R0)
Measured result: 5.14
